# In vitro activity (%) vs. Glucagon, cAMP EC50 annotations
- TGT: human GCG receptor (human, UniProt P47871 26-477)
- Sequence (P47871 26-477): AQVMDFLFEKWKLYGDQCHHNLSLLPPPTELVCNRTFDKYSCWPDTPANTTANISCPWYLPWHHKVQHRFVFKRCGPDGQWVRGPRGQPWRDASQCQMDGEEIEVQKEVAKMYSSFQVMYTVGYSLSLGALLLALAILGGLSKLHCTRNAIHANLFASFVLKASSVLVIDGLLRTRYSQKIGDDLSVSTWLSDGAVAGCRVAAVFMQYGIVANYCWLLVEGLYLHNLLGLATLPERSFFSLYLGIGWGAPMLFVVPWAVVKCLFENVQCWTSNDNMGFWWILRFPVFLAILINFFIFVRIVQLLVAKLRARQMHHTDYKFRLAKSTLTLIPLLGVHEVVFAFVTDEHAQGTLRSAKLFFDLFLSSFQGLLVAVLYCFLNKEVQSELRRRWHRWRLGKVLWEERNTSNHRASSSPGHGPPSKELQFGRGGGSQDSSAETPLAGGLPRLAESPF
- ASSAY_NAME: cell-based or functional assay
Bridges are numbered along the chain shown (N, C = ends). Where no end group is shown, it is not given here. [ ]: non-standard residue; d: D form. The star is where a group is joined. Acetyl(2-(4-imidazolyl)) = O=C(Cc1c[nH]cn1)*; Aib = CC(C)(N)C(=O)O

Below are worked cases with known answers.
BINDER	RESULT
H[Aib]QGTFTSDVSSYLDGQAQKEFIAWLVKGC [triple agonist of SEQ ID NO: 2]	< 0.1%
H[Aib]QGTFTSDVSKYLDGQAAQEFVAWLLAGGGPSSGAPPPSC [triple agonist of SEQ ID NO: 10]	< 0.1%
{Acetyl(2-(4-imidazolyl))}-[Aib]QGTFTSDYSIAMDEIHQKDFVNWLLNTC (bridge 15-19) [triple agonist of SEQ ID NO: 87]	< 0.1%

Quick one: In vitro activity (%) vs. Glucagon, cAMP EC50 for {Acetyl(2-(4-imidazolyl))}-[Aib]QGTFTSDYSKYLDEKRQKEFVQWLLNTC (bridge 15-19) [triple agonist of SEQ ID NO: 81] ? 0.3%

Requested field: In vitro activity (%) vs. Glucagon, cAMP EC50. Item: H[Aib]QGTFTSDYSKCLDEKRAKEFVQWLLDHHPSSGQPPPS (bridge 16-20; ends not checked) [triple agonist of SEQ ID NO: 65] 25.2%

Which In vitro activity (%) vs. Glucagon, cAMP EC50 is listed for [Acetyl(2-(4-imidazolyl))]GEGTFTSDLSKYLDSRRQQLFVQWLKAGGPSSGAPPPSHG [triple agonist of SEQ ID NO: 11] ? < 0.1%

Recorded In vitro activity (%) vs. Glucagon, cAMP EC50 for Y[Aib]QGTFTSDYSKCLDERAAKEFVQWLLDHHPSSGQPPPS (bridge 16-20; ends not checked) [triple agonist of SEQ ID NO: 69] , please? 9.6%
